Biological target: T1, 6His–Evasin-4 (Rhipicephalus sanguineus, UniProt P0C8E9 24-127)
T1 sequence: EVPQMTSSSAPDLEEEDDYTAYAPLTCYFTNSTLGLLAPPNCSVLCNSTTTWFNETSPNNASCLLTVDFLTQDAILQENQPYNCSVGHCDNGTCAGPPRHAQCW
Assay: SPR
Each entry below lists one item and its recorded kon value.
Respond numerically; units are M⁻¹ s⁻¹ and should not be typed.

Binder	kon / M⁻¹ s⁻¹
CCL17 (ligand) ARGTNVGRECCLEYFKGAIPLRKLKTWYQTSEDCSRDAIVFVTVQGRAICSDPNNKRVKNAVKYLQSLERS	1.76e+07

Problem: Reported kon, binder CCL26 (ligand) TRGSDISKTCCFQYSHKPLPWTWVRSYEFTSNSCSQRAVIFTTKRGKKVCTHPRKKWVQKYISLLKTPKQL : ____
Result: 170000

Problem: Reported kon, binder CCL16 (ligand) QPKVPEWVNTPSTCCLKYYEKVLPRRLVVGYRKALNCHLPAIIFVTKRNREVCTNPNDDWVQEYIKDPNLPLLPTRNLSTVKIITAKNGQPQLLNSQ : ____
Result: 1.2e+07
